Recorded measurements of IC50, one per entry
ASSAY TARGET: Bifunctional epoxide hydrolase 2 (Homo sapiens)
EXPERIMENTAL PROTOCOL: Inhibition of soluble epoxide hydrolase by fluorescence assay
# number only, unit nM dropped from output

# count of solved cases: 10
> print(dat)
                            structure.smiles                              assay.target  observation.type  value
 1  CC(C)N1CCN(C(=O)c2ccc(NC(=O)Nc3ccc(OC(F)(F)F)cc3)cc2)CC1  Bifunctional epoxide hydrolase 2 (Homo sapiens)              IC50      4
 2  O=C(Nc1ccc(C(F)(F)F)cc1)Nc1ccc(C(=O)NCCN2CCCC2)c(F)c1  Bifunctional epoxide hydrolase 2 (Homo sapiens)              IC50     19
 3  O=C(Nc1ccc(Cl)cc1)Nc1ccc(C(=O)N2CCOCC2)cc1  Bifunctional epoxide hydrolase 2 (Homo sapiens)              IC50     18
 4  CC(C)N1CCN(C(=O)c2ccc(NC(=O)Nc3ccc(C(F)(F)F)cc3)cc2)CC1  Bifunctional epoxide hydrolase 2 (Homo sapiens)              IC50      2
 5  O=C(Nc1ccc(C(F)(F)F)cc1)Nc1cccc(C(=O)NCCN2CCCC2)c1  Bifunctional epoxide hydrolase 2 (Homo sapiens)              IC50     68
 6  CC(C)N1CCN(S(=O)(=O)c2cccc(NC(=O)Nc3ccc(C(F)(F)F)cc3)c2)CC1  Bifunctional epoxide hydrolase 2 (Homo sapiens)              IC50      3
 7  O=C(Nc1ccc(C(F)(F)F)cc1)Nc1ccc(S(=O)(=O)CCCN2CCOCC2)cc1  Bifunctional epoxide hydrolase 2 (Homo sapiens)              IC50      1
 8  O=C(Nc1ccc(C(=O)NCCN2CCOCC2)cc1)Nc1ccc(C2CCCCC2)cc1  Bifunctional epoxide hydrolase 2 (Homo sapiens)              IC50     19
 9  O=C(Nc1ccc(C(F)(F)F)cc1)Nc1ccc(C(=O)NCCN2CCOCC2)c(F)c1  Bifunctional epoxide hydrolase 2 (Homo sapiens)              IC50      2
10  CN(CC(=O)O)C(=O)c1ccc(NC(=O)NC23CC4CC(CC(C4)C2)C3)cc1  Bifunctional epoxide hydrolase 2 (Homo sapiens)              IC50    200

Prompt: Requested field: IC50. Item: O=C(Nc1ccc(C(=O)NCCN2CCOCC2)cc1)Nc1ccc(C(F)(F)F)cc1
Completion: 1

Prompt: Requested field: IC50. Item: O=C(Nc1ccc(C(F)(F)F)cc1)Nc1ccc(C(=O)N2CCOCC2)c(F)c1
Completion: 2

---

ASSAY TARGET: Bifunctional epoxide hydrolase 2 (Homo sapiens)
Sequence (P34913 whole entry): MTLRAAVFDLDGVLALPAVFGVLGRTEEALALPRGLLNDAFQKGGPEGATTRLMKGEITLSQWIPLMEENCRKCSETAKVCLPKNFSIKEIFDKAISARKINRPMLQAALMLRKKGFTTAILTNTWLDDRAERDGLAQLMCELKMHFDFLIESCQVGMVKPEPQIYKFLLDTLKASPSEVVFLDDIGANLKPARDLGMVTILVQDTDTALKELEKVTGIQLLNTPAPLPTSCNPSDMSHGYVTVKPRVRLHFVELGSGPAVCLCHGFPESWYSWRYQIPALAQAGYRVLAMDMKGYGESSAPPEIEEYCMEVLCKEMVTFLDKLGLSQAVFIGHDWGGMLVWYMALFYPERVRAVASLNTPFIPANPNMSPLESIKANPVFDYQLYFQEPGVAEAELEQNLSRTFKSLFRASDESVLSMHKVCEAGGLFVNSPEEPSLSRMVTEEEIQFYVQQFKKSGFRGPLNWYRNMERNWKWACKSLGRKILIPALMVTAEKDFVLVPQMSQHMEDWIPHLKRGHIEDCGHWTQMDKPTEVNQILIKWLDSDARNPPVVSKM
EXPERIMENTAL PROTOCOL: Inhibition of soluble epoxide hydrolase by fluorescence assay
OBSERVATION TYPE: pIC50
Expect pIC50 as a plain number equal to -log10 of the molar concentration.

# count of solved cases: 4
> print(dat)
                           structure.smiles                              assay.target  value
1  O=C(Nc1ccc(C(F)(F)F)cc1)Nc1cccc(S(=O)(=O)CCCN2CCOCC2)c1  Bifunctional epoxide hydrolase 2 (Homo sapiens)   9.00
2  CN1CCN(C(=O)c2cc(NC(=O)Nc3ccc(C(F)(F)F)cc3)ccc2F)CC1  Bifunctional epoxide hydrolase 2 (Homo sapiens)   7.80
3  O=C(O)CNC(=O)c1cccc(NC(=O)NC23CC4CC(CC(C4)C2)C3)c1  Bifunctional epoxide hydrolase 2 (Homo sapiens)   6.10
4  O=C(Nc1ccc(Cl)cc1)Nc1ccc(C(=O)NCCN2CCOCC2)cc1  Bifunctional epoxide hydrolase 2 (Homo sapiens)   7.80

Prompt: Requested field: pIC50. Item: O=C(Nc1ccc(C(F)(F)F)cc1)Nc1ccc(S(=O)(=O)NCCN2CCOCC2)cc1
Completion: 8.52

Prompt: Requested field: pIC50. Item: O=C(Nc1ccc(C(F)(F)F)cc1)Nc1cccc(C(=O)Nc2cccnc2)c1
Completion: 7.74

Prompt: Requested field: pIC50. Item: O=C(Nc1ccc(Cl)cc1)Nc1cccc(C(=O)N2CCOCC2)c1
Completion: 7.31

Prompt: Requested field: pIC50. Item: O=C(Nc1ccccc1)Nc1ccc(C(=O)NCCN2CCOCC2)cc1
Completion: 6.49

Prompt: Requested field: pIC50. Item: CC(C)N1CCN(C(=O)c2cccc(NC(=O)Nc3ccc(C(F)(F)F)cc3)c2)CC1
Completion: 7.82

Prompt: Requested field: pIC50. Item: O=C(Nc1ccccc1)Nc1cccc(C(=O)NCCN2CCOCC2)c1
Completion: 5.55

Prompt: Requested field: pIC50. Item: O=C(Nc1ccc(Cl)cc1)Nc1ccc(F)c(C(=O)NCCN2CCCC2)c1
Completion: 6.12

Prompt: Requested field: pIC50. Item: CN1CCN(C(=O)c2ccc(NC(=O)Nc3ccc(C(F)(F)F)cc3)cc2F)CC1
Completion: 8.40

---

ASSAY TARGET: Bifunctional epoxide hydrolase 2 (Homo sapiens, UniProt P34913)
Sequence (P34913 whole entry): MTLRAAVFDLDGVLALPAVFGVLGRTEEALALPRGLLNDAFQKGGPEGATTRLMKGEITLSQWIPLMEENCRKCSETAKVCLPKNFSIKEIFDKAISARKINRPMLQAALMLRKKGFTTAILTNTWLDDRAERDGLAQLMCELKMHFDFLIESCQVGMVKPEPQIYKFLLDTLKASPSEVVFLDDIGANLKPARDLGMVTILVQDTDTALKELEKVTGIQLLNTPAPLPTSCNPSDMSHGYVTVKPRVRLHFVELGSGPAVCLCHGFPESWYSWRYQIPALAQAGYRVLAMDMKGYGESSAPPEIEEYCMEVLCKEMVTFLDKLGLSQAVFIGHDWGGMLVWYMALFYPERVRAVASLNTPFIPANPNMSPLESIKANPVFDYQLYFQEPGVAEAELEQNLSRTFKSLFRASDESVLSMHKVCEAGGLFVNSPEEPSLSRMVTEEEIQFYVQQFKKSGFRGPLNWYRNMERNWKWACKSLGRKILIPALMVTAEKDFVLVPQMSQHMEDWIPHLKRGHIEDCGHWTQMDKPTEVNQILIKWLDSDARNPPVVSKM
EXPERIMENTAL PROTOCOL: Inhibition of soluble epoxide hydrolase by fluorescence assay
Recorded measurements of pIC50, one per entry
Expect pIC50 as a plain number equal to -log10 of the molar concentration.

# count of solved cases: 4
> print(dat)
                           structure.smiles                              assay.target  value
1  CN1CCN(C(=O)c2cccc(NC(=O)NC34CC5CC(CC(C5)C3)C4)c2)CC1  Bifunctional epoxide hydrolase 2 (Homo sapiens, UniProt P34913)   7.44
2  O=C(Nc1ccc(C(F)(F)F)cc1)Nc1ccc(F)c(C(=O)NCCN2CCOCC2)c1  Bifunctional epoxide hydrolase 2 (Homo sapiens, UniProt P34913)   7.74
3  CN1CCN(C(=O)c2ccc(NC(=O)Nc3ccc(C(F)(F)F)cc3)cc2)CC1  Bifunctional epoxide hydrolase 2 (Homo sapiens, UniProt P34913)   7.85
4  CN1CCN(C(=O)c2ccc(NC(=O)Nc3ccc(F)cc3)cc2)CC1  Bifunctional epoxide hydrolase 2 (Homo sapiens, UniProt P34913)   6.80

Note: attention shifts to another entry.
Prompt: Provide the documented pIC50 with Bifunctional epoxide hydrolase 2 (Homo sapiens, UniProt P34913) as the system for O=C(Nc1ccc(F)cc1)Nc1ccc(C(=O)N2CCOCC2)cc1
Completion: 6.77
